Where do these numbers come from? They come from the emibetuzumab library of Makowski et al. (2022).

B1: VH:VL chains; a variant is named by its letters at X, in order (parent)
chain 1: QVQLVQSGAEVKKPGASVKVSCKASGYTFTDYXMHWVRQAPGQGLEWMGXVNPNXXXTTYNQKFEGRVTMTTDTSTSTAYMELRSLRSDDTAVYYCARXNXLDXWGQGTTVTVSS
chain 2: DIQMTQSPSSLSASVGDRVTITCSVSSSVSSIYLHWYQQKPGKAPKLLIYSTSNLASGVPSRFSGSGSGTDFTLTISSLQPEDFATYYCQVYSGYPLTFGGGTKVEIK

Variants of: B1
Experiment: yeast display scFab, FACS + sequencing
Endpoint label: non-specific binding call

Some variants with known non-specific binding call results, for comparison:
[[record]]
mutation_label = "FRTGDDGA"
reported = "no binding"

[[record]]
mutation_label = "DATRGAGD"
reported = "no binding"

[[record]]
mutation_label = "YKGRGSLA"
reported = "binds"

[[record]]
mutation_label = "AAAGGSWS"
reported = "binds"

[[record]]
mutation_label = "YTGTSSGA"
reported = "no binding"

[[record]]
mutation_label = "VAGKGAGD"
reported = "no binding"


non-specific binding call reading for "YKRRDFGV" : binds

non-specific binding call reading for "DAGGADWA" : no binding
